The reported measurements were obtained from ChEMBL document CHEMBL4732144.

target.entity: D(2) dopamine receptor (Homo sapiens)
Sequence (P14416 whole entry, canonical isoform): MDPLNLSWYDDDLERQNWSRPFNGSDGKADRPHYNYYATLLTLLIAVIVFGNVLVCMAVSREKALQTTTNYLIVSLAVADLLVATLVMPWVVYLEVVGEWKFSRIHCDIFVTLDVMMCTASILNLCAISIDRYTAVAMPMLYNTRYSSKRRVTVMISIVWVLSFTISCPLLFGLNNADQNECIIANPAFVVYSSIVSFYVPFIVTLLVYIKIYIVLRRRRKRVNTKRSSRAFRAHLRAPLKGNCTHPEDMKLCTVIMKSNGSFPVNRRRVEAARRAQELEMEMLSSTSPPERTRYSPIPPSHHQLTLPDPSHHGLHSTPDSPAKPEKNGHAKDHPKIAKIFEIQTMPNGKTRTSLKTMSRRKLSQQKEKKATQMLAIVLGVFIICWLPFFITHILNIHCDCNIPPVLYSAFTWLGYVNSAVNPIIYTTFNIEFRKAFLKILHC
assay: Agonist activity at human D2R isoform 2 stably expressed in HEK293 cells assessed as inhibition of forskolin-induced increase of cAMP accumulation preincubated for 10 mins followed by forskolin addition by Glosensor cAMP reagent based luminescence assay
compounds and their reported EC50
Dear colleague, please return just the value in nM, with no unit written.

Examples from the recorded data:
structure.smiles.string | unit.label | EC50
C#CCOc1ccc(-c2ccc(C(=O)NCCCCN(CCC)C3Cc4ccccc4C3)cc2)cc1 | nM | 321
CCCN(CCCCc1cn(CCOCCOCCOCCOCCOCCn2cc(CCCCN(CCC)C3Cc4ccccc4C3)nn2)nn1)C1Cc2ccccc2C1 | nM | 3.2

Incoming: Fill in: EC50 of CCCN(CCCCNC(=O)c1ccc(-c2ccc(OCc3cn(CCOCCOCCOCCOCCOCCn4cc(COc5ccc(-c6ccc(C(=O)NCCCCN(CCC)C7Cc8ccccc8C7)cc6)cc5)nn4)nn3)cc2)cc1)C1Cc2ccccc2C1 is ___
Outgoing: 65

Incoming: Fill in: EC50 of CCCN(CCCCNC(=O)c1ccc(-c2ccc(OCc3cn(CCOCCOCCOCCn4cc(COc5ccc(-c6ccc(C(=O)NCCCCN(CCC)C7Cc8ccccc8C7)cc6)cc5)nn4)nn3)cc2)cc1)C1Cc2ccccc2C1 is ___
Outgoing: 292

====

target.entity: D(2) dopamine receptor (Homo sapiens)
assay: Displacement of [3H]raclopride from human D2R isoform 2 stably expressed in HEK293 cell membranes measured after 1 hr by liquid scintillation counting method
property.measured: Ki (nM)
Dear colleague, please return just the value in nM, with no unit written.

Examples from the recorded data:
structure.smiles.string | target.entity | Ki / nM
CCCN(CCCCNC(=O)c1ccc(-c2ccc(OCc3cn(CCOCCOCCOCCOCCOCCn4cc(COc5ccc(-c6ccc(C(=O)NCCCCN(CCC)C7Cc8ccccc8C7)cc6)cc5)nn4)nn3)cc2)cc1)C1Cc2ccccc2C1 | D(2) dopamine receptor (Homo sapiens) | 59
CCCN(CCCCNC(=O)c1ccc(-c2ccc(OCc3cn(CCOCCOCCOCCOCCn4cc(COc5ccc(-c6ccc(C(=O)NCCCCN(CCC)C7Cc8ccccc8C7)cc6)cc5)nn4)nn3)cc2)cc1)C1Cc2ccccc2C1 | D(2) dopamine receptor (Homo sapiens) | 250
CCCN(CCCCc1cn(CCOCCOCCOCCn2cc(CCCCN(CCC)C3Cc4ccccc4C3)nn2)nn1)C1Cc2ccccc2C1 | D(2) dopamine receptor (Homo sapiens) | 73
CCCN(CCCCc1cn(CCOCCOCCOCCOCCOCCn2cc(CCCCN(CCC)C3Cc4ccccc4C3)nn2)nn1)C1Cc2ccccc2C1 | D(2) dopamine receptor (Homo sapiens) | 48
CCCN(CCCCNC(=O)c1ccc(-c2ccc(OCc3cn(CCOCCOCCOCCn4cc(COc5ccc(-c6ccc(C(=O)NCCCCN(CCC)C7Cc8ccccc8C7)cc6)cc5)nn4)nn3)cc2)cc1)C1Cc2ccccc2C1 | D(2) dopamine receptor (Homo sapiens) | 270

Incoming: Fill in: Ki of C#CCOc1ccc(-c2ccc(C(=O)NCCCCN(CCC)C3Cc4ccccc4C3)cc2)cc1 is ___
Outgoing: 970

Incoming: Fill in: Ki of C#CCCCCN(CCC)C1Cc2ccccc2C1 is ___
Outgoing: 189

Incoming: Fill in: Ki of CCCN(CCCCc1cn(CCOCCOCCOCCOCCn2cc(CCCCN(CCC)C3Cc4ccccc4C3)nn2)nn1)C1Cc2ccccc2C1 is ___
Outgoing: 66
